- procedure summary: NCI Yeast Anticancer Drug Screen. Data for the mlh1 rad18 strain (AID 175)
- measurement setup: S. cerevisiae mlh1 rad18 strain growth inhibition; at 50.0 µM; hits give high values
Compounds without any hit were thinned out: in the full panel of roughly 79,000, 15% have a hit.
Rule: growth inhibition under 30% gives -1, otherwise 1.

{"compound": "CCCCCCCCC(O)C(O)CCCCCCCCOC(=O)CCCCCCCCCCC(O)CCCCCC (stereo not given)", "class": -1}
{"compound": "O=C(O)CC(Sc1ccccc1)c1ccccc1 (stereo not given)", "class": -1}
{"compound": "CCCCCN(C(=O)c1ccccc1C(=O)N(CCCCC)c1ccccc1)c1ccccc1", "class": 1}
{"compound": "O=c1[nH]c2cc([N+](=O)[O-])ccc2nc1/C=C(\\O)c1cccc([N+](=O)[O-])c1", "class": -1}
{"compound": "CC(C)C(=O)Nc1ccccc1", "class": -1}
{"compound": "CC1(C)N=C(N)N=C(N)N1c1ccc(CN)cc1", "class": -1}
{"compound": "Cn1c(=O)c2[nH]c(CCCc3ccc([N+](=O)[O-])cc3)nc2n(C)c1=O", "class": -1}
{"compound": "Cc1ccc(C(=O)OC[C@H]2CC[C@@H](n3cc(N(C)C4CCCCC4)c(=O)[nH]c3=O)O2)cc1", "class": 1}
{"compound": "COc1cc2ccc1-c1cc(ccc1O)CC1c3cc4c(cc3CCN1C)Oc1c(OC)cc3c(c1O4)C(C2)N(C)CC3 (stereo not given)", "class": -1}
{"compound": "O=C(Nc1ccc(C(F)(F)F)cc1[N+](=O)[O-])C(=O)C1NC(=S)NC1=O (stereo not given)", "class": -1}

###

- procedure summary: NCI Yeast Anticancer Drug Screen. Data for the sgs1 mgt1 strain (AID 161);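 note: 0% = growth of cultures given vehicle only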
- measurement setup: S. cerevisiae sgs1 mgt1 strain, at 50.0 µM, hits give high values
Compounds without any hit were thinned out: in the full panel of roughly 79,000, 15% have a hit. Calls of active or inactive are those of the source. No stated cut-off is given here; in the data, active means growth inhibition above about 70%; inactive means the rest.
property label: growth inhibition

{"compound": "C(=N\\N1CCN(/N=C/c2ccc3ccccc3n2)CC1)/c1ccc2ccccc2n1", "meas value": "11.9% (inactive)"}
{"compound": "Cc1cc(N(CCC#N)CCC#N)ccc1/C(N=Nc1ccc(Cl)cc1)=N\\NC(=O)c1cc(Cl)ccc1O", "meas value": "-31.1% (inactive)"}
{"compound": "NNc1cc(=O)[nH]c(N)n1", "meas value": "-31.2% (inactive)"}
{"compound": "Cc1c2oc3c(C)ccc(C(=O)NCc4cccnc4)c3nc-2c(C(=O)NCc2cccnc2)c(N)c1=O", "meas value": "-6.85% (inactive)"}
{"compound": "CN(C)CC(c1ccccc1)C(O)(c1ccccc1)c1ccccc1 (stereo not given)", "meas value": "-1% (inactive)"}
{"compound": "O=c1c(Cl)c(Cl)cnn1-c1ccc([N+](=O)[O-])cc1[N+](=O)[O-]", "meas value": "3.05% (inactive)"}
{"compound": "COC(=O)C(/C(=N/N)C(=O)Nc1cccc(O)c1)c1nc2ccccc2[nH]c1=O (stereo not given)", "meas value": "-42% (inactive)"}
{"compound": "CC(C)c1ccc(O)c(Cc2cc(C(C)C)cc(Cc3cc(C(C)C)ccc3O)c2O)c1", "meas value": "-10.2% (inactive)"}
{"compound": "O=c1oc2ccccc2c2ccccc12", "meas value": "-16.5% (inactive)"}
{"compound": "COc1cccc2c1c1ccc3c(c1n2C)C(=O)C=CC3=O", "meas value": "21.9% (inactive)"}
{"compound": "COc1c(C)c2c(c(C)c1Cl)Oc1c(C=O)c(O)c(Cl)c(C)c1C(=O)O2", "meas value": "44.9% (inactive)"}
{"compound": "COC(=O)c1ccccc1C#CC#Cc1ccccc1C(=O)OC", "meas value": "4.6% (inactive)"}
{"compound": "Cc1cccc(C)c1Nc1nc(C)c(C(=O)CC(=O)C(=O)Nc2c(C(C)C)cccc2C(C)C)s1", "meas value": "46.3% (inactive)"}
{"compound": "NCCCCCC(N)=O", "meas value": "38.8% (inactive)"}
{"compound": "Nc1ncnc2scnc12", "meas value": "-8.5% (inactive)"}
{"compound": "Nc1cc(=O)[nH]c(SC2OC(CO)C(O)C2O)n1 (stereo not given)", "meas value": "9% (inactive)"}
{"compound": "O=C(OCc1ccccc1)c1ccccc1O", "meas value": "46.1% (inactive)"}
{"compound": "Cc1cc([N+](=O)[O-])ccc1NC(=O)c1c(Cl)c(Cl)c(C(=O)Nc2ccc([N+](=O)[O-])cc2C)c(Cl)c1Cl", "meas value": "34.9% (inactive)"}
{"compound": "Cc1ccc(CCCC(=O)O)c2ccc3ccccc3c12", "meas value": "8.6% (inactive)"}
{"compound": "COC(=O)C1(C)CCCC2(C)C3=CC(O)C4(C(C)C)OC4C3(O)CCC12 (stereo not given)", "meas value": "-8.15% (inactive)"}
{"compound": "COc1cccc(-c2cc(=O)c3cc(OC)ccc3[nH]2)c1", "meas value": "-14% (inactive)"}
{"compound": "CCOC(=N)Cc1ccccc1", "meas value": "4.6% (inactive)"}
{"compound": "CCOC(=O)/C(=C\\c1c(C)[nH]c2ccccc12)P(=O)(OCC)OCC", "meas value": "-22.9% (inactive)"}
{"compound": "O=C(c1ccccc1)[C@@H]1C[C@H](Sc2ccccc2)c2cc(Cl)ccc2N1", "meas value": "4.1% (inactive)"}
{"compound": "C[N+](C)(C)CCOC(=O)/C=C/c1cnc[nH]1", "meas value": "37.7% (inactive)"}

Sourced from PubChem BioAssay (NCI)
